Molecular target: amylin receptor subtype 3 (AMY3) (Homo sapiens, UniProt O60896+P30988)
Construct: expressed in transfected cells
Sequence (P30988 25-474): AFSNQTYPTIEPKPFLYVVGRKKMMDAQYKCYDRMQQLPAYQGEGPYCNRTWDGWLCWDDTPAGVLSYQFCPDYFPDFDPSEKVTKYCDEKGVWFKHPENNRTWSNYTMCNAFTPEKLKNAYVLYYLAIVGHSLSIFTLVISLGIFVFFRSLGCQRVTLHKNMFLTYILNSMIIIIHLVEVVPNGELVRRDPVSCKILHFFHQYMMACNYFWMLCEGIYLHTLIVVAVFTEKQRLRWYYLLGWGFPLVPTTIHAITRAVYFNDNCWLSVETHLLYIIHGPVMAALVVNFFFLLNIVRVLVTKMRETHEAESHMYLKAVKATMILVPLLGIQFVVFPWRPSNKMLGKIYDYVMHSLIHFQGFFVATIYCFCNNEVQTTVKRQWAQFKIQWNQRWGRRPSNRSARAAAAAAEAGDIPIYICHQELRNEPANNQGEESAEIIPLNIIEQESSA
Sequence (O60896 24-148): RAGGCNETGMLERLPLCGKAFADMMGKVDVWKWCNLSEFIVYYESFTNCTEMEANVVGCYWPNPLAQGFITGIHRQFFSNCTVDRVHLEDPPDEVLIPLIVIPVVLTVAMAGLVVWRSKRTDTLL
Test: cAMP assay in amylin receptor subtype 3 expressing cells (AMY3-HEK), ELISA and in-cell Western
Assay type: cell-based
Conditions: 0.1 μM hAmylin; compound and human amylin applied simultaneously; read-out: IC50 required to block hAmylin induced cAMP increase
EXPERIMENTAL ENDPOINT: IC50
# output: numeric value plus its unit

Could you share what IC50 was measured for Cc1nc(C)c(CCC(=O)N2CC(=O)Nc3ccccc32)c(=O)[nH]1 [Compound 23] , tested on amylin receptor subtype 3 (AMY3) (Homo sapiens, UniProt O60896+P30988)?
1 nM
